All values here come from patent US20200317779A1.

# Tgt: recombinant human CD3ε/δ heterodimer (human) (UniProt P07766)
# Sequence (P07766 23-126, stated change not applied, chain 1 of 2): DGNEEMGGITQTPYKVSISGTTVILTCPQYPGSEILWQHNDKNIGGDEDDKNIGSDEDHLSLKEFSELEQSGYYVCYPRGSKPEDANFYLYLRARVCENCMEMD
# Sequence (P04234 22-105, stated change not applied, chain 2 of 2, further chain): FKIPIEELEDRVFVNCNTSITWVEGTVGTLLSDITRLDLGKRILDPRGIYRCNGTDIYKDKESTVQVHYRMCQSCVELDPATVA
# Test Summary: BLI (Octet), antigen on anti-Penta His sensor, antibody 50 nM
Test Readout: kon (M⁻¹ s⁻¹)
Your answer is read as M⁻¹ s⁻¹, so omit the unit and give the number.

Binder	kon (M⁻¹ s⁻¹)
D16 (antibody, human IgG1, lambda, L234A L235A, V domains shown) VH: EVQLVESGGGLVQPGGSLKLSCAASGFTFNTYAMNWVRQASGKGLEWVGRIRSKYNNYATYYADSVKDRFTISRDDSQSTLYLQMNSLKTEDTAVYYCVRHGNFGNSYVSWFAYWGQGTLVTVSS VL: QAVVTQEPSLTVSPGGTVTLTCRSSTGAVTTSNYANWVQQKPGQAPRGLIGGTNKRAPWTPARFSGSLLGDKAALTLSGAQPEDEAEYYCALWYSNLWVFGGGTKLTVLG	240000
A07 (antibody, human IgG1, lambda, L234A L235A, V domains shown) VH: EVQLVESGGGLVQPGGSLKLSCAASGFTFNTYAMNWVRQASGKGLEWVGRIRSKYNNYATYYADSVKDRFTISRDDSKNTAYLQMNSLKTEDTAVYYCVRHGNFGNSYVSWFAYWGQGTLVTVSS VL: QAVVTQEPSLTVSPGGTVTLTCRSSTGAVTTSNYANWFQQKPGQAPRGLIGGTNKRAPWTPARFSGSLLGGKAALTLSGAQPEDEAEYYCALWYSNLWVFGGGTKLTVLG	119000

Moving on to the next binder.
Notebook: C16 (antibody, human IgG1, lambda, L234A L235A, V domains shown) VH: EVQLVESGGGLVQPGGSLKLSCAASGFTFNTYAMNWVRQASGKGLEWVGRIRSKYNNYATYYADSVKDRFTISRDDSQSTAYLQMNSLKTEDTAVYYCVRHGNFGNSYVSWFAYWGQGTLVTVSS VL: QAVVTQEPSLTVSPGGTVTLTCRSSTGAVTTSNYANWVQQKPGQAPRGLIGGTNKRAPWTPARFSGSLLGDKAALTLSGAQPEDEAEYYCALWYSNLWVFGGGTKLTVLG , kon read as 268000
